Measured values drawn from patent US4100346A for this set.

MEASUREMENT NOTES: Recovery in urine after intramuscular injection
RUN CONDITIONS: rat, im, 10 mg/kg
Property: dose excreted at 24 h; scope: individual compounds
All answers are understood in %, so give the number only.

# input What value of dose excreted at 24 h has been reported for the following compound? `Cc1nnc(SCC2=C(C(=O)O)N3C(=O)[C@@H](NC(=O)Cn4cnnn4)[C@H]3SC2)s1`
# output 75

---
# input What value of dose excreted at 24 h has been reported for the following compound? `O=C(Cc1cccs1)N[C@@H]1C(=O)N2C(C(=O)[O-])=C(C[n+]3ccccc3)CS[C@H]12`
# output 59

# input What value of dose excreted at 24 h has been reported for the following compound? `NCc1ccccc1CC(=O)N[C@@H]1C(=O)N2C(C(=O)O)=C(CSc3nnnn3CC(=O)O)CS[C@H]12`
# output 65
